# test.target: Bromodomain-containing protein 4 [1-477] (Human, UniProt O60885)
# Construct: 1-477
pIC50: −log10 of the molar value.
Record form. Attribute: pIC50. Fill in for each entry.

Consider the reported pIC50 for these molecules:
[
  {
    "structure.smiles": "Cc1noc(C)c1-c1cnc2c(I)cn(Cc3ccccc3C#N)c2c1",
    "pIC50": "> 6.00"
  },
  {
    "structure.smiles": "Cc1noc(C)c1-c1cnc2c(-c3ccc(C(=O)O)cc3)cn(CC3CC4(CCC4)C3)c2c1",
    "pIC50": "> 6.00"
  }
]

Turning now to a further record.
Tell me the measured pIC50 of COC(=O)c1ccc(-c2c[nH]c3cc(-c4c(C)noc4C)cnc23)cc1 , please.
> 6.00
